Data provenance is patent US6800794B1.

tested on: Botrytis cinerea mycelium, strain 916T; test: Inhibition of the growth of Botrytis cinerea mycelium on malt medium containing resveratrol; type: cell-based; conditions: Botrytis cinerea, 168 h, read-out: inhibitory effect on growth of mycelial hyphae (IC50); malt/agar medium, 7 days, ambient temperature (FIG. 9: 20° C.)
Outcome Measure: IC50 (µM)
Give just the numeric value; µM need not be written.

Identify IC50 associated with the compound Oc1ccc(C=Cc2cc(O)cc(O)c2)cc1 500
